Reference source: patent US5599953A

# experimentalSystem: mRARα (Mus musculus, UniProt P11416)
# Construct: made in house; host or cells: Spodoptera frugiperda insect cells, baculovirus (whole cell extract)
# Sequence (P11416 whole entry): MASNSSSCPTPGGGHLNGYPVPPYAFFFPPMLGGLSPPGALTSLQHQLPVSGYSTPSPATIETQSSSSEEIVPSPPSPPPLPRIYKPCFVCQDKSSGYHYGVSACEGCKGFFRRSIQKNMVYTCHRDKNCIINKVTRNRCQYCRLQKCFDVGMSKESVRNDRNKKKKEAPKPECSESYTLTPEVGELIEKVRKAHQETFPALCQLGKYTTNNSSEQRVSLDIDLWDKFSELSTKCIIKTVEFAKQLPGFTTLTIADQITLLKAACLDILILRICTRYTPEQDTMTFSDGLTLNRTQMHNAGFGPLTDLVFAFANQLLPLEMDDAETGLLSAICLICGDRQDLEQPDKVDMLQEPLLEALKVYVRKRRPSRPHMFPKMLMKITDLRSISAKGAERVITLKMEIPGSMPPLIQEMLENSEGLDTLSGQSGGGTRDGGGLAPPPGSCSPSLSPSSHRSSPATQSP
# protocolDescription: Drug competition with (3H)retinoic acid binding, mRARα
# appliedConditions: read-out: percent reduction of binding of the (3H)retinoic acid, mRARα; 1 μM drug; 5 nM [3H]RA
Recorded inhibition at 1 µM values for a group of molecules are listed next.
Just the number in %, nothing appended.

A selection of reference data follows.
>  <molecule>
CC1=C(/C=C/C(C)=C/C=C/C(C)=C/C(=O)Nc2ccc(C[C@@H]3OC[C@@H](O)[C@H](O)[C@H]3O)cc2)C(C)(C)CCC1 [4-(retinamido)benzyl-C-xyloside]

>  <inhibition at 1 µM (%)>
12

$$$$
>  <molecule>
CC1=C(/C=C/C(C)=C/C=C/C(C)=C/C(=O)Nc2ccc(O)cc2)C(C)(C)CCC1 [Example 4-HPR, N-(4-hydroxyphenyl) retinamide, reference compound]

>  <inhibition at 1 µM (%)>
18

$$$$

Alright, here's another molecule for you.
Param request: inhibition at 1 µM | system mRARα (Mus musculus, UniProt P11416) | item CC1=C(/C=C/C(C)=C/C=C/C(C)=C/C(=O)Nc2ccc(C[C@@H]3O[C@H](C(=O)O)[C@@H](O)[C@H](O)[C@H]3O)cc2)C(C)(C)CCC1 [4-(retinamido)benzyl-C-glucuronide]
67
